test system: MSTO-211H cells; assay: Tumor cell proliferation inhibition experiment (Cell Titer Glo), MSTO-211H; type: cell-based; settings: MSTO-211H lung cancer cells, three days incubation
Would you mind telling me the reported IC50 of each entry?
Just the number please, in nM, no unit attached.

## Task Provide IC50, recorded with MSTO-211H cells, of `CNC(=O)c1cc2c(c(F)c1-c1c(Cl)c(F)cc3c1C[C@](c1ccccc1)([C@@H]1CCCN1)O3)C[C@H](O)[C@H]2C`
## Result 390

## Task Lab note: MSTO-211H cells assay, enter IC50 for CNC(=O)c1cc2c(c(F)c1-c1c(Cl)c(F)cc3c1C[C@@](CN[C@H]1CC[C@](C)(O)CC1)(c1ccccc1)O3)C1CC1O2 (some centres unmarked) [Compound 14a] here
## Result 320

----------
assay: Pharmacokinetic evaluation experiment in mice (IV and PO); format: in vivo; conditions: mouse; male ICR mice, PO 30 mg/kg, plasma; read-out: Cmax
Kindly state Cmax for each of the entries shown.
Lab book: enter the figure in ng/mL, no units written.

## Task Provide measured Cmax value, entry: CNC(=O)c1cc2c(c(F)c1-c1c(Cl)c(F)cc3c1C[C@](c1ccccc1)([C@@H]1CCCN1)O3)C1CC1O2 (stereo partly drawn) [Compound 2a]
## Result 474

## Task Output Cmax of CNC(=O)c1cnc(OCCO)c(F)c1-c1c(Cl)c(F)cc2c1C[C@](c1ccccc1)([C@@H]1CC3(CC3)CN1)O2 [Compound 10a]
## Result 603

## Task Name the recorded Cmax of the item CNC(=O)c1cc2c(c(F)c1-c1c(Cl)c(F)cc3c1C[C@](c1ccccc1)([C@@H]1CCCN1)O3)CCC2O (stereo partly drawn) [Compound 41a] in your answer.
## Result 1270

----------
experiment: Pharmacokinetic evaluation experiment in mice (IV and PO); type: in vivo; settings: mouse; male ICR mice, IV 5 mg/kg, plasma
assay.endpoint: clearance (mL/min/kg)
Report the figure in mL/min/kg without appending any unit label.

## Task Report clearance, nothing else, for this molecule: CNC(=O)c1cc2c(c(F)c1-c1c(Cl)c(F)cc3c1C[C@](c1ccccc1)([C@@H]1CC4(CC4)CN1)O3)OC1CC21 (stereo partly drawn) [Compound 18a]
## Result 107

## Task # return recorded clearance for entry CNC(=O)c1cc2c(c(F)c1-c1c(Cl)c(F)cc3c1C[C@@](CN[C@H]1CC[C@H](O)CC1)(c1ccccc1)O3)C1CC1O2 (stereo partly drawn) [Compound 13a]
## Result 41.4

## Task Return reported clearance. Input molecule: CNC(=O)c1cnc(OCCO)c(F)c1-c1c(Cl)c(F)cc2c1C[C@](c1ccccc1)([C@@H]1CC3(CC3)CN1)O2 [Compound 10a]
## Result 50.4
